# Test system: right ventricle (effective refractory period)
# ASSAY_OVERVIEW: Activity on ERP of the right ventricle
# Format: in vivo, adult mongrel dog
# SETTINGS: Canis lupus familiaris, iv; 1 mg/kg i.v.; ERP before drug = 100%; read-out: ERP % (ERP prolonging activity)
A collection of compounds and their measured change in vivo at 1 mg/kg
Your answer should be a plain number; it is taken to be in %.

Below, 5 compounds whose answers are already recorded.
COMPOUND: CCCCCCCN(CC)CCCOc1ccc2c(c1OC)OCC2=O [Compound 244]
TESTED_SYSTEM: right ventricle (effective refractory period)
UNIT_SYMBOL: %
change in vivo at 1 mg/kg: 9
//
COMPOUND: CC1CCCCN1CCCOc1ccc2c(c1)OCC2=O (stereo not drawn) [Compound 1114]
TESTED_SYSTEM: right ventricle (effective refractory period)
UNIT_SYMBOL: %
change in vivo at 1 mg/kg: 3
//
COMPOUND: CCN(CCCOc1ccc2c(c1)OCC2=O)CC1CCCO1 (stereo not drawn) [Compound 184]
TESTED_SYSTEM: right ventricle (effective refractory period)
UNIT_SYMBOL: %
change in vivo at 1 mg/kg: 6.3
//
COMPOUND: CC1CCCC(C)N1CCCOc1ccc2c(c1)OCC2=O (stereo not drawn) [Compound 1126]
TESTED_SYSTEM: right ventricle (effective refractory period)
UNIT_SYMBOL: %
change in vivo at 1 mg/kg: 12
//
COMPOUND: CCCCCCCN(CC)CCOc1ccc2c(c1)OCC2=O [Compound 196]
TESTED_SYSTEM: right ventricle (effective refractory period)
UNIT_SYMBOL: %
change in vivo at 1 mg/kg: 18

stdin: For CC(C)CN(CCCOc1ccc2c(c1)OCC2=O)CC(C)C [Compound 132] , what is its reported change in vivo at 1 mg/kg?
stdout: 4.8

stdin: For CC(C)N(CCCOc1ccc2c(c1)OCC2=O)C(C)C [Compound 116] , what is its reported change in vivo at 1 mg/kg?
stdout: 9

stdin: For CS(=O)(=O)NC1CCN(CCCOc2ccc3c(c2)OCC3=O)CC1 [Compound 1286] , what is its reported change in vivo at 1 mg/kg?
stdout: 16.6

stdin: For CCCCCCC[N+](CC)(CC)CC(O)COc1ccc2c(c1)OCC2=O (stereo not drawn) [Compound 292] , what is its reported change in vivo at 1 mg/kg?
stdout: 8
